meta.source: ChEMBL document CHEMBL2429736

- System Name: Tyrosine-protein phosphatase non-receptor type 1 (Homo sapiens)
- Test Description: Inhibition of recombinant full length PTP1B (unknown origin) assessed as p-nitrophenyl phosphate conversion to p-nitrophenol after 10 mins by spectrophotometric analysis
Attribute Measured: pIC50
pIC50 is defined as minus the log10 of a concentration measured in mol/L.

For the molecule `CCCOc1c2cccc1Cc1cc(C(P(=O)(O)O)P(=O)(O)O)cc(c1O)Cc1cccc(c1OCCC)Cc1cc(C(P(=O)(O)O)P(=O)(O)O)cc(c1O)C2` , give its reported pIC50.
5.60

Please list pIC50 recorded for the molecule `CCCOc1c2cccc1Cc1cc(C(P(=O)(O)O)P(=O)(O)O)cc(c1O)Cc1cccc(c1OCCC)Cc1cccc(c1O)C2`
5.92

Give the measured pIC50 for `CCCOc1c2cccc1Cc1cc(C(O)(P(=O)(O)O)P(=O)(O)O)cc(c1O)Cc1cccc(c1OCCC)Cc1cccc(c1O)C2`
5.72

For the molecule `CCCOc1c2cccc1Cc1cc(C(O)(P(=O)(O)O)P(=O)(O)O)cc(c1O)Cc1cccc(c1OCCC)Cc1cc(C(O)(P(=O)(O)O)P(=O)(O)O)cc(c1O)C2` , report pIC50.
5.08

---

Please go through the items and note down their IC50.
- System Name: Tyrosine-protein phosphatase non-receptor type 2 (Homo sapiens)
- Sequence (P17706 whole entry): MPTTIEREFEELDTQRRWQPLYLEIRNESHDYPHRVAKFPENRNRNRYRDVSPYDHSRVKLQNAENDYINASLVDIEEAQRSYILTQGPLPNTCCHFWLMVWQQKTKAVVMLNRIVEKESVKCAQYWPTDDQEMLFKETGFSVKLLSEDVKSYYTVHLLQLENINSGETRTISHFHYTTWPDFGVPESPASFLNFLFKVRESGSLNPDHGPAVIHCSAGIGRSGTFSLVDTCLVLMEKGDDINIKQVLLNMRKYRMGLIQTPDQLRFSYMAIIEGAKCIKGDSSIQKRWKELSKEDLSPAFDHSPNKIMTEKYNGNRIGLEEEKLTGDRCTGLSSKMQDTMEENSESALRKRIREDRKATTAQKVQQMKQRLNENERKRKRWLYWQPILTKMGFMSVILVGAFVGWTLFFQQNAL
Response body: numeric value in µM, unit text excluded.

System Tyrosine-protein phosphatase non-receptor type 2 (Homo sapiens). Read-out IC50. Item `CCCOc1c2cccc1Cc1cc(C(P(=O)(O)O)P(=O)(O)O)cc(c1O)Cc1cccc(c1OCCC)Cc1cc(C(P(=O)(O)O)P(=O)(O)O)cc(c1O)C2` . Report value.
4.9

# return IC50 for `CCCOc1c2cccc1Cc1cc(C(O)(P(=O)(O)O)P(=O)(O)O)cc(c1O)Cc1cccc(c1OCCC)Cc1cc(C(O)(P(=O)(O)O)P(=O)(O)O)cc(c1O)C2` , test system: Tyrosine-protein phosphatase non-receptor type 2 (Homo sapiens)
22

---

For each of the compounds below, state its pIC50.
- System Name: Tyrosine-protein phosphatase non-receptor type 11 (Homo sapiens)
- Sequence (Q06124 whole entry): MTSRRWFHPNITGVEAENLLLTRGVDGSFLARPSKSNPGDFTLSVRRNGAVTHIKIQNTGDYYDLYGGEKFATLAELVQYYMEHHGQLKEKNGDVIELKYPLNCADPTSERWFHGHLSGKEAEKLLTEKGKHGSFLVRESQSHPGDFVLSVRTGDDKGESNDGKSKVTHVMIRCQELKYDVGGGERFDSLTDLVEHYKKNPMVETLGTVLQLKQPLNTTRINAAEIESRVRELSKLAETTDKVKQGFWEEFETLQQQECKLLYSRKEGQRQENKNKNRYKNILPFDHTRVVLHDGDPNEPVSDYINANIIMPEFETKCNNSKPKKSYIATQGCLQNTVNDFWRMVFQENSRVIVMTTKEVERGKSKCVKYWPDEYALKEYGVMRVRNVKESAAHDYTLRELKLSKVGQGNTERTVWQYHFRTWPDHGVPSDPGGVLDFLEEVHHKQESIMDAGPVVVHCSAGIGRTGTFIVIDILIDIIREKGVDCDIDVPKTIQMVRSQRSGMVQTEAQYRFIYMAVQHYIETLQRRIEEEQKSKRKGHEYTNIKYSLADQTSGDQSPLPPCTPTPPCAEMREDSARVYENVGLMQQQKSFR
Quick note: pIC50 values are minus log10 of concentrations in mol/L.

Check the records and state pIC50 for `CCCOc1c2cccc1Cc1cc(C(O)(P(=O)(O)O)P(=O)(O)O)cc(c1O)Cc1cccc(c1OCCC)Cc1cc(C(O)(P(=O)(O)O)P(=O)(O)O)cc(c1O)C2`
5.04

Name the recorded pIC50 of the item `CCCOc1c2cccc1Cc1cc(C(O)(P(=O)(O)O)P(=O)(O)O)cc(c1O)Cc1cccc(c1OCCC)Cc1cccc(c1O)C2` in your answer.
5.47

---

- System Name: UniProt:P18031
- Sequence (P18031 whole entry): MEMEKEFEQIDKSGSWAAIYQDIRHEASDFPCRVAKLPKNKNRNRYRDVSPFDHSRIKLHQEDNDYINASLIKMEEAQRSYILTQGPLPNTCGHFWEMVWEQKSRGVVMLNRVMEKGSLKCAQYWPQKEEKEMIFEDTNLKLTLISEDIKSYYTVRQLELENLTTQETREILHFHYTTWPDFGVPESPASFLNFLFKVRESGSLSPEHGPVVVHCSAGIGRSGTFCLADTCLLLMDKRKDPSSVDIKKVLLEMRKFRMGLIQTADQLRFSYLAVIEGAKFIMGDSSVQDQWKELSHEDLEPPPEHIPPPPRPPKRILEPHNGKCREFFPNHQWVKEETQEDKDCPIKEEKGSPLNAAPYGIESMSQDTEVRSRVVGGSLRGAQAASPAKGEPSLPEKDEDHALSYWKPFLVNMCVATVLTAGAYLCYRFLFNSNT
- Test Description: Competitive inhibition of recombinant full length PTP1B (unknown origin) assessed as p-nitrophenyl phosphate conversion to p-nitrophenol by Lineweaver-Burk plot analysis
Attribute Measured: Ki (µM)
Numbers only; they are read as µM.

Assign Ki to the following record: `CCCOc1c2cccc1Cc1cc(C(P(=O)(O)O)P(=O)(O)O)cc(c1O)Cc1cccc(c1OCCC)Cc1cccc(c1O)C2`
0.98

---

Kindly state pIC50 for each of the entries shown.
- System Name: Tyrosine-protein phosphatase non-receptor type 1 (Homo sapiens, UniProt P18031)
- Test Description: Inhibition of recombinant truncated PTP1B (unknown origin) using pTyr1146 as substrate assessed as inorganic phosphate level after 20 mins by spectrophotometric analysis
pIC50 (log units): -log10 of the concentration in mol/L.

Check the records and state pIC50 for `CCCOc1c2cccc1Cc1cc(C(O)(P(=O)(O)O)P(=O)(O)O)cc(c1O)Cc1cccc(c1OCCC)Cc1cc(C(O)(P(=O)(O)O)P(=O)(O)O)cc(c1O)C2`
5.14

# return recorded pIC50 for entry `CCCOc1c2cccc1Cc1cc(C(O)(P(=O)(O)O)P(=O)(O)O)cc(c1O)Cc1cccc(c1OCCC)Cc1cccc(c1O)C2`
5.39

For `CCCOc1c2cccc1Cc1cc(C(P(=O)(O)O)P(=O)(O)O)cc(c1O)Cc1cccc(c1OCCC)Cc1cccc(c1O)C2` , write its pIC50.
5.43

Give reported pIC50 value for `CCCOc1c2cccc1Cc1cc(C(P(=O)(O)O)P(=O)(O)O)cc(c1O)Cc1cccc(c1OCCC)Cc1cc(C(P(=O)(O)O)P(=O)(O)O)cc(c1O)C2`
5.41

---

Notes on pIC50 obtained with Receptor-type tyrosine-protein phosphatase beta (Homo sapiens).
Sequence (P23467 whole entry): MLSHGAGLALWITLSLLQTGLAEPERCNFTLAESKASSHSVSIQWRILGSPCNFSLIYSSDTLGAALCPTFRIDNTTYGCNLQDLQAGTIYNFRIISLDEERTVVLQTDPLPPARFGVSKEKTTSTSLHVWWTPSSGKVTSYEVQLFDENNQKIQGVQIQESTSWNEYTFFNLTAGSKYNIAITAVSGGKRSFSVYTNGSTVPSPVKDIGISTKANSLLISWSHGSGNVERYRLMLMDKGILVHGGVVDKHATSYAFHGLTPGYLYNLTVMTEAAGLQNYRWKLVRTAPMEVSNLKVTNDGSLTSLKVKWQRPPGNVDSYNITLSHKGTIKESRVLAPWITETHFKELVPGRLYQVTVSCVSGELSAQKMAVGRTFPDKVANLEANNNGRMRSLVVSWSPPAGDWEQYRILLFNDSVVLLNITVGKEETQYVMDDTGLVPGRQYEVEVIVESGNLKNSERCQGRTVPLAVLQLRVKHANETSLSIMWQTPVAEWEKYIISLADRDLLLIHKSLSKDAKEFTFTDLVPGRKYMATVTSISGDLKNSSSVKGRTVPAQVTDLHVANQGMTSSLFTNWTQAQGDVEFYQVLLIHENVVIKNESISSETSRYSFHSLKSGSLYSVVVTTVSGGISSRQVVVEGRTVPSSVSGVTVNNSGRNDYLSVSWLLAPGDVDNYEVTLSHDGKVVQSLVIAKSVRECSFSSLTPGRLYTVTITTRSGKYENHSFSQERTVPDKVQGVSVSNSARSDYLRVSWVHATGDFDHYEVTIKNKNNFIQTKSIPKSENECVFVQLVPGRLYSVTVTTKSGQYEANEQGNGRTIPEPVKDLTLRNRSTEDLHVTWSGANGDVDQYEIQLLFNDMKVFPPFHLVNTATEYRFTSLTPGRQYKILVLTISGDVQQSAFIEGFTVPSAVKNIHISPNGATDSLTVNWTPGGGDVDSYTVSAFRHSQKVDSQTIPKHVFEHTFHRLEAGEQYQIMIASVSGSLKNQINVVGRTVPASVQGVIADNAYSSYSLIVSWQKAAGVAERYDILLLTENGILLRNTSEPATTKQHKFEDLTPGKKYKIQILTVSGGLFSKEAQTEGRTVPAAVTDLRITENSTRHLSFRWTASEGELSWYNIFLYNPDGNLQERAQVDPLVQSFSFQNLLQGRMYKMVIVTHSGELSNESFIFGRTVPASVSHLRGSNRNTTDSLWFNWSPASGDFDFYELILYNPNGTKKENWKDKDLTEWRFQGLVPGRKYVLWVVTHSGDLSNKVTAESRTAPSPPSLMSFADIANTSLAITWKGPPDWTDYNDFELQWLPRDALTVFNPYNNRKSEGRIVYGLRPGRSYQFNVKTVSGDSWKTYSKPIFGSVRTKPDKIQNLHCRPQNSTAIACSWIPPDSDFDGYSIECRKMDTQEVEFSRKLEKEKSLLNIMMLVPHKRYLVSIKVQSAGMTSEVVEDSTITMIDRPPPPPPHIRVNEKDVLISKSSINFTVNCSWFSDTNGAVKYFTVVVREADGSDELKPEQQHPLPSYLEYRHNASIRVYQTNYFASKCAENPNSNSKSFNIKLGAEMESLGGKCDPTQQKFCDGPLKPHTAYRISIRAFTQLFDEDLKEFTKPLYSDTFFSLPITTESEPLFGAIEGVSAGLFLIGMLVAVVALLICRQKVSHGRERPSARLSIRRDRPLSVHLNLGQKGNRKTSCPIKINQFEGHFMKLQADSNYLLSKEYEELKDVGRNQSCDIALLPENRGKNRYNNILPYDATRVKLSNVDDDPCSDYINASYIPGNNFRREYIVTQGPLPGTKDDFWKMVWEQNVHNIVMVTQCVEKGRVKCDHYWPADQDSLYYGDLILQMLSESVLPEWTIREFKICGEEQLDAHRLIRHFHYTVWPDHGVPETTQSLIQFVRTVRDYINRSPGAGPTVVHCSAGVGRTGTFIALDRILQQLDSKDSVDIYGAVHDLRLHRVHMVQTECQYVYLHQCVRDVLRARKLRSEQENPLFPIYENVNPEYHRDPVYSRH
By convention, pIC50 is the negative base-10 log of a molar concentration.

Specify measured pIC50 for `CCCOc1c2cccc1Cc1cc(C(O)(P(=O)(O)O)P(=O)(O)O)cc(c1O)Cc1cccc(c1OCCC)Cc1cccc(c1O)C2` .
4.74

Return the recorded pIC50 value; entry: `CCCOc1c2cccc1Cc1cc(C(O)(P(=O)(O)O)P(=O)(O)O)cc(c1O)Cc1cccc(c1OCCC)Cc1cc(C(O)(P(=O)(O)O)P(=O)(O)O)cc(c1O)C2`
4.92

---

I'd be grateful if you could share measured pIC50 for these entries.
pIC50: −log10 of the molar value.

// fetch pIC50; item: `CCCOc1c2cccc1Cc1cc(C(O)(P(=O)(O)O)P(=O)(O)O)cc(c1O)Cc1cccc(c1OCCC)Cc1cccc(c1O)C2` ; system: Receptor-type tyrosine-protein phosphatase F (Homo sapiens)
Sequence (P10586 whole entry): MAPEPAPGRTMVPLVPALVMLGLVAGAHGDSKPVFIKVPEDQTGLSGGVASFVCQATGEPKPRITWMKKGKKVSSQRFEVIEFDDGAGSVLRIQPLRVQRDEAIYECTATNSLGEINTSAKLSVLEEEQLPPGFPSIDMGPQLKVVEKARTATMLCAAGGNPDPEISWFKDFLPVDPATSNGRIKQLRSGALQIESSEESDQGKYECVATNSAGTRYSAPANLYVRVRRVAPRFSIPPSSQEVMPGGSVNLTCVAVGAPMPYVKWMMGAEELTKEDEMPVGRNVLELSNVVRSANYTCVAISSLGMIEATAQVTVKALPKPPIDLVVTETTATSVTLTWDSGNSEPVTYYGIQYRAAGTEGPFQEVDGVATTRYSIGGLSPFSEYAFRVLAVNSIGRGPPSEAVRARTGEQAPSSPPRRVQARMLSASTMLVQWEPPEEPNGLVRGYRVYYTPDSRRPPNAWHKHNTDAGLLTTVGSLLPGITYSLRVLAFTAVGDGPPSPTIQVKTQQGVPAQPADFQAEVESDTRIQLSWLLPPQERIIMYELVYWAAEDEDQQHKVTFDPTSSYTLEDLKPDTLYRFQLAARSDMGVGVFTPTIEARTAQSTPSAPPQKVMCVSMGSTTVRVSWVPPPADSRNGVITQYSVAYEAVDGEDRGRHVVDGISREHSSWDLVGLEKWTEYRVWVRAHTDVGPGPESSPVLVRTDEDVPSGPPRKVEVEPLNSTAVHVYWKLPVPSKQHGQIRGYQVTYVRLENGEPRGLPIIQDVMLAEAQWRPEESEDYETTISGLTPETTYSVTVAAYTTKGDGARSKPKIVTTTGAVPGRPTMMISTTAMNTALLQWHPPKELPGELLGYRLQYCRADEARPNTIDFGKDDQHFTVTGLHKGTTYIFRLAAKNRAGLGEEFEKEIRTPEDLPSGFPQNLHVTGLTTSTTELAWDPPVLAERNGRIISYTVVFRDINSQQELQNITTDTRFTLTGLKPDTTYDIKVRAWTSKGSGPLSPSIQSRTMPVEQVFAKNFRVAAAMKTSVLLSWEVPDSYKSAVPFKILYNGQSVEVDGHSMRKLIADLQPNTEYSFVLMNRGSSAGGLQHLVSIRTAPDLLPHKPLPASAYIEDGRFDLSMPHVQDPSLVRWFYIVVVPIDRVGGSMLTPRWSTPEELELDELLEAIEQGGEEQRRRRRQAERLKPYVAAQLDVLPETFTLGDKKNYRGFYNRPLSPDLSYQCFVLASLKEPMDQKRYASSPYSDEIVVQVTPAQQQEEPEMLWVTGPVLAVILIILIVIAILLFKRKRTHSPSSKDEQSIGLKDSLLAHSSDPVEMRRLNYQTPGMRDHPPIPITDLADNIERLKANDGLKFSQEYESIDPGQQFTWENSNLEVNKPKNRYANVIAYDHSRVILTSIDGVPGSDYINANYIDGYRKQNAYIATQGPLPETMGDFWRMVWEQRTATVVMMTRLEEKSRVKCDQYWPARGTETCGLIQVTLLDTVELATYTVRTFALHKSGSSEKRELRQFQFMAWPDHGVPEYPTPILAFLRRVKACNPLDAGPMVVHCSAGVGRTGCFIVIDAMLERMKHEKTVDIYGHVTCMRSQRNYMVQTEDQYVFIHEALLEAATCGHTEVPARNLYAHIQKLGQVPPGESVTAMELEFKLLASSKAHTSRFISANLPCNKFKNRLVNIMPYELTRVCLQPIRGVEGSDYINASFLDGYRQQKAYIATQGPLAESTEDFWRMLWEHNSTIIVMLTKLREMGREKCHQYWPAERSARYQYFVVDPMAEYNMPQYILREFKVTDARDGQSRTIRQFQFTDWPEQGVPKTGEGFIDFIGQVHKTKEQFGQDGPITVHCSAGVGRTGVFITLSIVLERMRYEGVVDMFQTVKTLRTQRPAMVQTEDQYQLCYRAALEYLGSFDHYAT
≤ 4.00

Return reported pIC50 for target or system Receptor-type tyrosine-protein phosphatase F (Homo sapiens), item `CCCOc1c2cccc1Cc1cc(C(P(=O)(O)O)P(=O)(O)O)cc(c1O)Cc1cccc(c1OCCC)Cc1cc(C(P(=O)(O)O)P(=O)(O)O)cc(c1O)C2` .
< 4.00

# lookup: Receptor-type tyrosine-protein phosphatase F (Homo sapiens) pIC50, key = `CCCOc1c2cccc1Cc1cc(C(O)(P(=O)(O)O)P(=O)(O)O)cc(c1O)Cc1cccc(c1OCCC)Cc1cc(C(O)(P(=O)(O)O)P(=O)(O)O)cc(c1O)C2`
< 4.00

---

- System Name: Receptor-type tyrosine-protein phosphatase C (Homo sapiens, UniProt P08575)
- Sequence (P08575 whole entry): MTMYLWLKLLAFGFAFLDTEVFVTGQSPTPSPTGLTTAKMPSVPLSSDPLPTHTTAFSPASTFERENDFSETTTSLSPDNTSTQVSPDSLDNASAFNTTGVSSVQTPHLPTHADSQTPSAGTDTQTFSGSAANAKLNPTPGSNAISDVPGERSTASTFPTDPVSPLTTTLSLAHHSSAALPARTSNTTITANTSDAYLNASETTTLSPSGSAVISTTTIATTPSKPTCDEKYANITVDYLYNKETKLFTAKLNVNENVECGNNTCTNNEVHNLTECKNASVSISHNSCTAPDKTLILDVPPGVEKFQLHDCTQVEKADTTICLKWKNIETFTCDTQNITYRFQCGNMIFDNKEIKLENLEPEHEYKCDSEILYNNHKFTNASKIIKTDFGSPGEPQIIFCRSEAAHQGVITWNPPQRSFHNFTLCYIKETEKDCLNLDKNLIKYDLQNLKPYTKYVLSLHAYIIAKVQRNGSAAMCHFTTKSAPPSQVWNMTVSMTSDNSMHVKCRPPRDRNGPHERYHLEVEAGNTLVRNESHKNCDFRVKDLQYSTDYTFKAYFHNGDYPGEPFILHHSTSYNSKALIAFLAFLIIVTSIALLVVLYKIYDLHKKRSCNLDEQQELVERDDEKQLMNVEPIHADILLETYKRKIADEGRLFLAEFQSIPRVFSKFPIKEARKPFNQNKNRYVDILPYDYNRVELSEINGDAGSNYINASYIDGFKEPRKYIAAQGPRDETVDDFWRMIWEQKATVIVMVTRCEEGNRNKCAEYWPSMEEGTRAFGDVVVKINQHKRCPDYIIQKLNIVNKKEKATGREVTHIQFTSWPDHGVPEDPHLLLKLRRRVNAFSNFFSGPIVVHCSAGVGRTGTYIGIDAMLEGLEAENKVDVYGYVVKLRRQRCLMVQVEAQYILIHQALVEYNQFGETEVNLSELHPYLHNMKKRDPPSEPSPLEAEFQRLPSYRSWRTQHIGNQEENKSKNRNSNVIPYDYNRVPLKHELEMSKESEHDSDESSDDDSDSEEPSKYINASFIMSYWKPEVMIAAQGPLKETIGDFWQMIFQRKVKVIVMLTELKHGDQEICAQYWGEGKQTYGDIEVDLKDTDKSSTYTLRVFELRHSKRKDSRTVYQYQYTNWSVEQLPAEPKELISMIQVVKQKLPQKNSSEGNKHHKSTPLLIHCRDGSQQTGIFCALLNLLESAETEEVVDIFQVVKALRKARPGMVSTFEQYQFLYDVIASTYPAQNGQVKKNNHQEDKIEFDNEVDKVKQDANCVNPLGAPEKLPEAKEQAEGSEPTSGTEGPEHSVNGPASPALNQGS
Attribute Measured: IC50 (µM)
Kindly answer with a numeric value in µM, unit omitted.

Name the recorded IC50 of the compound listed here: `CCCOc1c2cccc1Cc1cc(C(P(=O)(O)O)P(=O)(O)O)cc(c1O)Cc1cccc(c1OCCC)Cc1cccc(c1O)C2`
5.7
